experiment: Asn-Pro hydrolysis in unstructured linear peptide mimics of CDR-L3 at accelerated temperature; assay type: physicochemical; settings: pH 7.4, 90° C.
Examples of substances with documented % Pro peak formation/day at 90° C. follow.
The response must be a number in % Pro peak formation/day with no trailing unit.

These solved cases illustrate the format of a correct answer.
{"substance": "Fab1: peptide mimic of Fab1 CDR-L3 segment, QQWSSNPWTFGQ", "unit info": "% Pro peak formation/day", "% Pro peak formation/day at 90° C.": 1.0}
{"substance": "Mab4: peptide mimic of Mab4 CDR-L3 segment, QQGINNPLTFGQ", "unit info": "% Pro peak formation/day", "% Pro peak formation/day at 90° C.": 1.9}
{"substance": "Mab3: peptide mimic of Mab3 CDR-L3 segment, QQWSSNPYTFGQ", "unit info": "% Pro peak formation/day", "% Pro peak formation/day at 90° C.": 2.9}

Now take the following substance into account.
Per the records, this substance ( Fab2: peptide mimic of Fab2 CDR-L3 segment, QQGYGNPFTFGQ ) has % Pro peak formation/day at 90° C. equal to 2.9
